Experiment: Volume of distribution in dog at 5 umol/kg, iv administered as bolus dose in 20 to 30% DMA in PBS
Type: ADME, organism-based, Canis lupus familiaris
Conditions: in vivo
observation-type: Vd (L/kg)

compound	val
C[C@H]1CN(c2cc(=O)c3cc(C(=O)N(C)C)cc([C@@H](C)Nc4cc(F)cc(F)c4)c3o2)CCO1	2.5
C[C@@H](Nc1cc(F)cc(F)c1F)c1cc(C(=O)N(C)C)cc2c(=O)cc(N3CCOCC3)oc12	2.2
C[C@H](c1cc(C(=O)N(C)C)cc2c(=O)cc(N3CCOCC3)oc12)N(C)c1cc(F)cc(F)c1	2.2
C[C@@H](Nc1cc(F)cc(F)c1)c1cc(C(=O)N(C)C)cc2c(=O)cc(N3CCOCC3)oc12 [AZD-8186]	2.2
